I'd be grateful if you could share measured CTG 144 h Rm in for these entries.
- System: HCC1954 breast cancer cells
- Assay text: Payload cell viability dose response (CellTiter-Glo 2.0), HCC1954 (Example 4)
- Assay type: cell-based, human
- Condition details: HCC1954, 144 h
- Description: Cell viability dose response was determined for exemplary payload compounds in HER2-amplified HCC1954 breast cancer cells and NCI-N87 gastric cancer cells. HCC1954 (American Type Culture Collection (ATCC)) breast ductal carcinoma or NCI-N87 (ATCC) gastric carcinoma cells were plated at 500 cells/well in flat bottom 384-well tissue culture plates (Corning) in a total volume of 30 μL tissue culture medium supplemented with 10% fetal bovine serum (ThermoFisher Scientific). […]
Enter your answer as a number in %; do not include the unit.

## Input I would be grateful if you could share the reported CTG 144 h Rm in for `COC(=O)[C@@H](CCCCNC(=O)N1CCN(C)CC1)NC(=O)C[C@H]1CC[C@H](C)[C@@H](/C(C)=C/C=C/[C@@H](C)C[C@@]2(C)O[C@@H]2[C@H](C)[C@@H](OC)[C@@H](C)O)O1` .
## Output −97.761

## Input I would be grateful if you could share the reported CTG 144 h Rm in for `CO[C@H]([C@@H](C)[C@H]1O[C@]1(C)C[C@H](C)/C=C/C=C(\C)[C@H]1O[C@@H](CC(=O)NCCCC[C@@H](NC(=O)N2CCN(C)CC2)C(=O)O)CC[C@@H]1C)[C@@H](C)O` .
## Output 27.17

## Input I would be grateful if you could share the reported CTG 144 h Rm in for `CO[C@H]([C@@H](C)[C@H]1O[C@]1(C)C[C@H](C)/C=C/C=C(\C)[C@H]1O[C@@H](CNC(=O)[C@H]2CC[C@H](COC(=O)N3CCN(C)CC3)CC2)CC[C@@H]1C)[C@@H](C)O` .
## Output 71.431

## Input I would be grateful if you could share the reported CTG 144 h Rm in for `CO[C@H]([C@@H](C)[C@H]1O[C@]1(C)C[C@H](C)/C=C/C=C(\C)[C@H]1O[C@@H](CC(=O)N[C@@H](CCNC(=O)N2CCN(C)CC2)C(=O)O)CC[C@@H]1C)[C@@H](C)O` .
## Output −95.522

## Input I would be grateful if you could share the reported CTG 144 h Rm in for `COC(=O)[C@@H](CCCCNC(=O)C[C@H]1CC[C@H](C)[C@@H](/C(C)=C/C=C/[C@@H](C)C[C@@]2(C)O[C@@H]2[C@H](C)[C@@H](OC)[C@@H](C)O)O1)NC(=O)N1CCN(C)CC1` .
## Output −94.301
